B1: MYBL2 (parent)
chain: FPNRTDQQCQYRWLRVLNPDLVKG

# Variants of: B1
# Test Details: protein stability index of a GFP-peptide fusion (GPS, HEK-293T) (PSI 1-6); higher = more stable;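 also: lentivirally expressed fusions sorted by FACS into six bins by GFP to DsRed ratio, PSI derived from sequencing read proportions per bin multiplied by bin number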
# Condition: c terminus: a fixed tail appended
Measured Endpoint: protein stability index
// no unit string in output, number only

These recorded examples may help you get a feel for the data.
| Entry Sequence | protein stability index |
| --- | --- |
| APNRTDQQCQYRWLRVLNPDLVKG [F1A] | 2.54 |
| FPNRTDQQCQYRWLRVLNPDLVKS [G24S] | 1.68 |
| FPNRQDQQCQYRWLRVLNPDLVKG [T5Q] | 1.76 |

Ask: Quick one: protein stability index of IPNRTDQQCQYRWLRVLNPDLVKG [F1I] ?
Result: 2.6

Ask: Quick one: protein stability index of FPNRTDQQCQYRWLRVLSPDLVKG [N18S] ?
Result: 2.17

Ask: Quick one: protein stability index of FPNRTDQQCQYRWLRLLNPDLVKG [V16L] ?
Result: 1.77

Ask: Quick one: protein stability index of FPNRTDQQCQYRWLRVCNPDLVKG [L17C] ?
Result: 1.79

Ask: Quick one: protein stability index of FPNRTDQQCQERWLRVLNPDLVKG [Y11E] ?
Result: 3.11

Ask: Quick one: protein stability index of FPNRTDQQCQYRWLRVLNRDLVKG [P19R] ?
Result: 1.84

Ask: Quick one: protein stability index of FPERTDQQCQYRWLRVLNPDLVKG [N3E] ?
Result: 1.96

Ask: Quick one: protein stability index of FPNRTDQQCQYRWLRVLNPDLVGG [K23G] ?
Result: 1.8

Ask: Quick one: protein stability index of FPNRTDQQCQYRWLRVLNPDGVKG [L21G] ?
Result: 1.66

Ask: Quick one: protein stability index of FPLRTDQQCQYRWLRVLNPDLVKG [N3L] ?
Result: 1.94

Ask: Quick one: protein stability index of FWNRTDQQCQYRWLRVLNPDLVKG [P2W] ?
Result: 1.61

Ask: Quick one: protein stability index of FPNRTDHQCQYRWLRVLNPDLVKG [Q7H] ?
Result: 2.05

Ask: Quick one: protein stability index of FPNRTDQQCQYRWLRVLNPKLVKG [D20K] ?
Result: 2.06

Ask: Quick one: protein stability index of FPNRTDQQCQYRWLRVLKPDLVKG [N18K] ?
Result: 1.68

Ask: Quick one: protein stability index of FPNRTDQQCQYRWLRVLNDDLVKG [P19D] ?
Result: 1.97

Ask: Quick one: protein stability index of FPNRTDQQCQYRWLRVLNADLVKG [P19A] ?
Result: 1.81

Ask: Quick one: protein stability index of FPNRTDQQCQYRWLRVKNPDLVKG [L17K] ?
Result: 2.47

Ask: Quick one: protein stability index of FPNRTDQQCQYRWLRVLNPDLVDG [K23D] ?
Result: 1.97

Ask: Quick one: protein stability index of FPNRTDQQCQYRWLRVLNVDLVKG [P19V] ?
Result: 1.94

Where do these numbers come from? They come from the supplement of paper PMC10567573.
